Where these numbers come from: patent US20020026053A1

# Test system: PDGF-R
# ASSAY_OVERVIEW: PDGF-R Assay (cellular ELISA, U1242 cells)
# Format: cell-based
# Design: concentration or dose not given beside the values
# APPLIED_CONDITIONS: protocol P.119
I'd appreciate it if you could supply PDGF Kinase % Inhibition (P.119) values for the items below.
Give bare numbers, in %.

COMPOUND | TARGET | UNIT_STRING | VALUE_OBSERVED
CC(C)(C)c1ccc(Oc2cccc(C=C3C(=O)Nc4ccc(I)cc43)c2)cc1 | PDGF-R | % | −10.2

Can you give me PDGF Kinase % Inhibition (P.119) for all of these, one by one?
1. COc1cccc(C=C2C(=O)Nc3ccc(CCCl)cc32)c1
2. CNS(=O)(=O)c1ccc2c(c1)C(=Cc1cc(O)c(O)c(O)c1)C(=O)N2
3. CC(C)(C)c1ccc(Oc2cccc(C=C3C(=O)Nc4ccc(CCCl)cc43)c2)cc1

1: −7.4; 2: 18.8; 3: −0.2

Can you give me PDGF Kinase % Inhibition (P.119) for all of these, one by one?
1. COc1ccc(C=C2C(=O)Nc3ccc(I)cc32)cc1F
2. Cc1ccc(C)c(C=C2C(=O)Nc3ccc(S(=O)(=O)Nc4ccc(C(F)(F)F)cc4)cc32)c1
3. Cc1ccc(C)c(C=C2C(=O)Nc3ccc(CCCl)cc32)c1
4. CNS(=O)(=O)c1ccc2c(c1)C(=Cc1cccc(Oc3cccc(C(F)(F)F)c3)c1)C(=O)N2

20.1
28.1
24.1
5.4

Can you give me PDGF Kinase % Inhibition (P.119) for all of these, one by one?
1. O=C1Nc2ccc(CCCl)cc2C1=Cc1cccc(Oc2cccc(C(F)(F)F)c2)c1
2. Cc1ccc(C=C2C(=O)Nc3ccc(I)cc32)c(C)c1
3. CNS(=O)(=O)c1ccc2c(c1)C(=Cc1cc(C)ccc1C)C(=O)N2
4. Cc1ccc(C=C2C(=O)Nc3c(Br)cc(Br)cc32)c(C)c1
5. O=C1Nc2ccc(CCCl)cc2C1=Cc1cccc(OCc2ccccc2)c1
6. CNS(=O)(=O)c1ccc2c(c1)C(=Cc1ccc(OC)c(F)c1)C(=O)N2
7. CNS(=O)(=O)c1ccc2c(c1)C(=Cc1cccc(Oc3ccc(OC)cc3)c1)C(=O)N2
8. Cc1c(Br)cc(Br)c2c1C(=Cc1ccc(O)cc1Cl)C(=O)N2

1. 5.0
2. 29.7
3. −5.0
4. 38.8
5. −6.9
6. −10.2
7. 5.7
8. −17.1

Can you give me PDGF Kinase % Inhibition (P.119) for all of these, one by one?
1. Cc1c(Br)cc(Br)c2c1C(=Cc1cccc(F)c1)C(=O)N2
2. O=C1Nc2ccc(S(=O)(=O)N3CCOCC3)cc2C1=Cc1ccc(OCc2ccccc2)cc1
3. COc1ccc(Oc2cccc(C=C3C(=O)Nc4ccc(Br)c(C)c43)c2)cc1
4. O=C1Nc2ccc(S(=O)(=O)Nc3ccc(C(F)(F)F)cc3)cc2C1=Cc1cc(O)c(O)c(O)c1
5. O=C1Nc2ccc(S(=O)(=O)N3CCOCC3)cc2C1=Cc1ccc(O)cc1Cl
6. COc1ccc(C=C2C(=O)Nc3ccc(S(=O)(=O)Nc4ccc(C(F)(F)F)cc4)cc32)cc1F

1. −21.9
2. −4.0
3. 11.0
4. 48.4
5. 9.1
6. 26.5

Can you give me PDGF Kinase % Inhibition (P.119) for all of these, one by one?
1. Cc1c(Br)ccc2c1C(=Cc1ccc(CO)o1)C(=O)N2
2. CNS(=O)(=O)c1ccc2c(c1)C(=Cc1ccc(O)cc1Cl)C(=O)N2
3. Cc1c(Br)cc(Br)c2c1C(=Cc1cc(O)c(O)c(O)c1)C(=O)N2
4. Cc1ccc(C)c(C=C2C(=O)Nc3ccc(S(=O)(=O)N4CCOCC4)cc32)c1

1: 9.1; 2: −43.8; 3: 14.9; 4: 12.9

Can you give me PDGF Kinase % Inhibition (P.119) for all of these, one by one?
1. CNS(=O)(=O)c1ccc2c(c1)C(=CC1COc3ccccc3O1)C(=O)N2 (centres unmarked)
2. CN(C)CCCOc1ccc(C=C2C(=O)Nc3ccc(I)cc32)cc1

["−6.9", 74.1]

Can you give me PDGF Kinase % Inhibition (P.119) for all of these, one by one?
1. O=C1Nc2ccc(CCCl)cc2C1=Cc1cc(O)c(O)c(O)c1
2. CCOc1ccc(C=C2C(=O)Nc3c(Br)cc(Br)c(C)c32)cc1
3. O=C1Nc2ccc(S(=O)(=O)Nc3ccc(C(F)(F)F)cc3)cc2C1=Cc1cccc(OCc2ccccc2)c1
4. COc1ccc(C=C2C(=O)Nc3ccc(S(=O)(=O)N4CCOCC4)cc32)cc1F
5. Cc1c(Br)ccc2c1C(=Cc1cccc(Oc3ccc(C(C)(C)C)cc3)c1)C(=O)N2
6. CNS(=O)(=O)c1ccc2c(c1)C(=Cc1ccc(Oc3ccccc3)cc1)C(=O)N2
7. Cc1c(Br)cc(Br)c2c1C(=Cc1ccc(Oc3ccccc3)cc1)C(=O)N2

1. 10.1
2. −18.1
3. 2.8
4. 11.3
5. 6.6
6. 1.0
7. −11.7

###

# TARGET: EGFR (Homo sapiens, UniProt P00533)
# Construct: endogenous in cells; host or cells: A431 cells (lysate, captured with SUMO1 anti-EGFR antibody)
# Sequence (P00533 25-1210): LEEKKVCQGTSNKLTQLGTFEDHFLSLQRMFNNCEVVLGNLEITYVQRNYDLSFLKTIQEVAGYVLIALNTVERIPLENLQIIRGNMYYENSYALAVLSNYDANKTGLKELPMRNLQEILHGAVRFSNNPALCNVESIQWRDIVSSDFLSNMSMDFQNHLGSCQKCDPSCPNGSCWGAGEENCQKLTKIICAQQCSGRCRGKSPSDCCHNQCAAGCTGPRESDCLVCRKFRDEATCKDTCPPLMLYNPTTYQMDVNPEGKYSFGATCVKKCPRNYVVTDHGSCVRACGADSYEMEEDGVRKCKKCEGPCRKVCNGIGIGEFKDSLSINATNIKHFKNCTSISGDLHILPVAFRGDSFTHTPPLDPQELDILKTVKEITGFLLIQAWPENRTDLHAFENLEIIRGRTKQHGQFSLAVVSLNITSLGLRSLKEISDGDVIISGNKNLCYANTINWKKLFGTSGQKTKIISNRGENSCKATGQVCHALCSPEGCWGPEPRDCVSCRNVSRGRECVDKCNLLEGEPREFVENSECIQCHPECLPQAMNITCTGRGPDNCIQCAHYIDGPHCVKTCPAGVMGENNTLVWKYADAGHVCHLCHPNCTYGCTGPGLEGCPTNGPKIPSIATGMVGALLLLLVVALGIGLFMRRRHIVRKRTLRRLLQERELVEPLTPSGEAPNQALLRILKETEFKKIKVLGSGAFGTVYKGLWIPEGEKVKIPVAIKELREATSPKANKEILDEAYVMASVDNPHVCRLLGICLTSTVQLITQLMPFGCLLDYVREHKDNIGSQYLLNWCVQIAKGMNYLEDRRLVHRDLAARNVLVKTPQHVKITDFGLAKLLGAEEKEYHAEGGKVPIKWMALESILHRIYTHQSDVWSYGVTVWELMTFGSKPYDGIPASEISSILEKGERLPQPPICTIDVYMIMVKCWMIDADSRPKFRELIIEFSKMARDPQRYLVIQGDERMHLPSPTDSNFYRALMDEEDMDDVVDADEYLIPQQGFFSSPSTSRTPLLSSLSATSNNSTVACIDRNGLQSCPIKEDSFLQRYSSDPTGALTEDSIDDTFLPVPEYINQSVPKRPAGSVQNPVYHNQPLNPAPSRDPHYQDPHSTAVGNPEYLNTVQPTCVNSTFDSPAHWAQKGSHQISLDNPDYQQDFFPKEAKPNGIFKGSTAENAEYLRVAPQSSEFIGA
# ASSAY_OVERVIEW: Biochemical EGFR Assay
# Parameters: concentration or dose not given beside the values
I'd appreciate it if you could supply Biochem EGFR % Inhibition (P.167) values for the items below.
Numbers only, in %.

Worked cases, Biochem EGFR % Inhibition (P.167) given:
COMPOUND | Biochem EGFR % Inhibition (P.167) [%]
Cc1cc(C)c(C=C2C(=O)Nc3c(Br)cc(Br)c(C)c32)[nH]1 [10721/H08] | −6.8
Cc1c(Br)cc(Br)c2c1C(=Cc1ccc(C(C)(C)C)cc1)C(=O)N2 [10734/H10] | −12.6
Cc1c(Br)cc(Br)c2c1C(=Cc1cccn1C)C(=O)N2 [10717/H04] | 6.8
O=C1Nc2c(Br)cc(Br)cc2C1=Cc1cccc(Cl)c1 [10736/A06] | 34.4
Cc1c(Br)cc(Br)c2c1C(=Cc1c[nH]c3ccccc13)C(=O)N2 [10717/H06] | −16.8

Can you give me Biochem EGFR % Inhibition (P.167) for all of these, one by one?
1. Cc1c(Br)cc(Br)c2c1C(=Cc1cc(Br)c(O)c(C(C)(C)C)c1)C(=O)N2 [10721/H10]
2. CCc1ccc(C=C2C(=O)Nc3ccc(I)cc32)cc1 [10736/B09]
3. Cc1c(Br)cc(Br)c2c1C(=Cc1ccc(OCc3ccccc3)c(C(C)(C)C)c1)C(=O)N2 [10732/H06]
4. Cc1c(Br)cc(Br)c2c1C(=Cc1cccn1-c1ccc(Cl)cc1)C(=O)N2 [10724/H09]
5. Cc1c(Br)cc(Br)c2c1C(=Cc1cc(Cl)c(OCc3ccccc3)c(C(C)(C)C)c1)C(=O)N2 [10732/H10]
6. Cc1c(Br)cc(Br)c2c1C(=Cc1ccc(C#N)cc1)C(=O)N2 [10727/H09]

1: −3.9; 2: −3.5; 3: −6.9; 4: −33.5; 5: −21.3; 6: −6.1

###

# TARGET: Met receptor (EGFR/Met chimeric cells, EMR) (Homo sapiens)
# Construct: expressed in transfected cells; the other entry of the earlier key: EGFR (P00533, Epidermal growth factor receptor)
# Sequence (P08581 with tags, fused parts or gaps): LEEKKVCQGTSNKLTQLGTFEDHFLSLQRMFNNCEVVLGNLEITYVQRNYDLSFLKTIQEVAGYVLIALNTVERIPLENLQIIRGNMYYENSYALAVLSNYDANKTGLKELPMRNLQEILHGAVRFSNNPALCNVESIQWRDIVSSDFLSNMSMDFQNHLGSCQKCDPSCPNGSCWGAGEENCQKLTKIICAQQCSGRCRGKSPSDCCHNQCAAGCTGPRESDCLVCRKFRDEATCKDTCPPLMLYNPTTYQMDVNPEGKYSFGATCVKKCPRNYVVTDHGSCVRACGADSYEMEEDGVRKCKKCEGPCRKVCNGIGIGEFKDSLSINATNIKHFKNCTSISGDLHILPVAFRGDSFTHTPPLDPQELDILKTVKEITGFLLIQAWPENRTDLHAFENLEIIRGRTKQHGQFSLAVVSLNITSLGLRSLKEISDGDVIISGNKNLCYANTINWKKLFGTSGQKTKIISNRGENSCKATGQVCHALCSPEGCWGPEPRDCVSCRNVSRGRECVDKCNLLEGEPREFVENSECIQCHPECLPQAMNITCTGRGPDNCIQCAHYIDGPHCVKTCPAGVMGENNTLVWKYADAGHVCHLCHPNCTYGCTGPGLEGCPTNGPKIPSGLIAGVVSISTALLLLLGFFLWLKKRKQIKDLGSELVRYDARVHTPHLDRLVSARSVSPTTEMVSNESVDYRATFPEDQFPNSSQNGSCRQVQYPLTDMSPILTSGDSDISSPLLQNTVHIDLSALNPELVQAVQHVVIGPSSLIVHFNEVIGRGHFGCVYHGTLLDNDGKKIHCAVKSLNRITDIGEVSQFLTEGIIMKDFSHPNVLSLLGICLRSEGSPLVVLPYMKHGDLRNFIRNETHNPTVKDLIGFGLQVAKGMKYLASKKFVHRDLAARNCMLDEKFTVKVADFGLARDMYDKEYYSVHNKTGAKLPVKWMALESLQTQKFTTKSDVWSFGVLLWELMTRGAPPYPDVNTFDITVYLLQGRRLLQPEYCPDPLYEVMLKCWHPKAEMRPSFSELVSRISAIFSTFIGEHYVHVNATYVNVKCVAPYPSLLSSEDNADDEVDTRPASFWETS
# ASSAY_OVERVIEW: Met Autophosphorylation Assay
# Assay type: biochemical
# APPLIED_CONDITIONS: protocol P.130
QUANTITY_KIND: Met Kinase % Inhibition (P.130)

COMPOUND | Met Kinase % Inhibition (P.130)
Cc1[nH]c2ccccc2c1C=C1C(=O)Nc2ccc(I)cc21 | 65.0%
CCCOc1ccc(C=C2C(=O)Nc3ccc(I)cc32)cc1 | 75.4%
COc1ccc(C=C2C(=O)Nc3ccc(Br)c(C)c32)cc1O | 53.7%
Cc1ccc(Oc2cccc(C=C3C(=O)Nc4c(Br)cc(Br)c(C)c43)c2)cc1 | 35.3%
Cc1ccc(C)c(C=C2C(=O)Nc3ccc(CCCl)cc32)c1 | 41.8%
O=C1Nc2ccc(S(=O)(=O)N3CCOCC3)cc2C1=Cc1ccc2ccccc2c1 | 76.1%
O=C1Nc2ccc(S(=O)(=O)Nc3ccc(C(F)(F)F)cc3)cc2C1=Cc1cccc(OCc2ccccc2)c1 | −3.4%
Cc1c(Br)cc(Br)c2c1C(=Cc1ccc3ccccc3n1)C(=O)N2 | 33.4%
CCCCOc1ccc(C=C2C(=O)Nc3c(Br)cc(Br)cc32)cc1 | 30.3%
CNS(=O)(=O)c1ccc2c(c1)C(=Cc1ccsc1)C(=O)N2 | 39.3%

Can you give me Met Kinase % Inhibition (P.130) for all of these, one by one?
1. Cc1ccc(C=C2C(=O)Nc3c(Br)cc(Br)c(C)c32)c(C)c1
2. Cc1c(Br)ccc2c1C(=Cc1ccc(Oc3ccccc3)cc1)C(=O)N2

["46.1%", "27.6%"]

Can you give me Met Kinase % Inhibition (P.130) for all of these, one by one?
1. CCOc1ccc(C=C2C(=O)Nc3c(Br)cc(Br)cc32)cc1
2. O=C1Nc2ccc(I)cc2C1=Cc1ccoc1
3. Cc1cccc(C=C2C(=O)Nc3c(Br)cc(Br)c(C)c32)c1

["53.2%", "70.6%", "27.2%"]

Can you give me Met Kinase % Inhibition (P.130) for all of these, one by one?
1. Cc1ccc(C)c(C=C2C(=O)Nc3ccc(Br)c(C)c32)c1
2. CNS(=O)(=O)c1ccc2c(c1)C(=Cc1cccc(Oc3ccc(C(C)(C)C)cc3)c1)C(=O)N2
3. Cc1c(Br)cc(Br)c2c1C(=Cc1ccccc1C(F)(F)F)C(=O)N2
4. Cc1c(Br)ccc2c1C(=CC1COc3ccccc3O1)C(=O)N2 (stereo not shown)
5. O=C1Nc2ccc(CCCl)cc2C1=Cc1cccc(F)c1
6. O=C1Nc2ccc(S(=O)(=O)N3CCOCC3)cc2C1=Cc1cc(O)c(O)c(O)c1
7. O=C1Nc2c(Br)cc(Br)cc2C1=Cc1ccnc2ccccc12

["57.5%", "24.8%", "27.7%", "34.7%", "−0.2%", "100.5%", "77.8%"]

Can you give me Met Kinase % Inhibition (P.130) for all of these, one by one?
1. Cc1c(Br)ccc2c1C(=Cc1cccc(Oc3ccc(Cl)c(Cl)c3)c1)C(=O)N2
2. O=C1Nc2ccc(CCCl)cc2C1=Cc1ccc2ccccc2c1

1: 22.7%; 2: 31.2%
